TARGET_DESC: Jak2 (UniProt O60674)
Sequence (O60674 whole entry, looked up): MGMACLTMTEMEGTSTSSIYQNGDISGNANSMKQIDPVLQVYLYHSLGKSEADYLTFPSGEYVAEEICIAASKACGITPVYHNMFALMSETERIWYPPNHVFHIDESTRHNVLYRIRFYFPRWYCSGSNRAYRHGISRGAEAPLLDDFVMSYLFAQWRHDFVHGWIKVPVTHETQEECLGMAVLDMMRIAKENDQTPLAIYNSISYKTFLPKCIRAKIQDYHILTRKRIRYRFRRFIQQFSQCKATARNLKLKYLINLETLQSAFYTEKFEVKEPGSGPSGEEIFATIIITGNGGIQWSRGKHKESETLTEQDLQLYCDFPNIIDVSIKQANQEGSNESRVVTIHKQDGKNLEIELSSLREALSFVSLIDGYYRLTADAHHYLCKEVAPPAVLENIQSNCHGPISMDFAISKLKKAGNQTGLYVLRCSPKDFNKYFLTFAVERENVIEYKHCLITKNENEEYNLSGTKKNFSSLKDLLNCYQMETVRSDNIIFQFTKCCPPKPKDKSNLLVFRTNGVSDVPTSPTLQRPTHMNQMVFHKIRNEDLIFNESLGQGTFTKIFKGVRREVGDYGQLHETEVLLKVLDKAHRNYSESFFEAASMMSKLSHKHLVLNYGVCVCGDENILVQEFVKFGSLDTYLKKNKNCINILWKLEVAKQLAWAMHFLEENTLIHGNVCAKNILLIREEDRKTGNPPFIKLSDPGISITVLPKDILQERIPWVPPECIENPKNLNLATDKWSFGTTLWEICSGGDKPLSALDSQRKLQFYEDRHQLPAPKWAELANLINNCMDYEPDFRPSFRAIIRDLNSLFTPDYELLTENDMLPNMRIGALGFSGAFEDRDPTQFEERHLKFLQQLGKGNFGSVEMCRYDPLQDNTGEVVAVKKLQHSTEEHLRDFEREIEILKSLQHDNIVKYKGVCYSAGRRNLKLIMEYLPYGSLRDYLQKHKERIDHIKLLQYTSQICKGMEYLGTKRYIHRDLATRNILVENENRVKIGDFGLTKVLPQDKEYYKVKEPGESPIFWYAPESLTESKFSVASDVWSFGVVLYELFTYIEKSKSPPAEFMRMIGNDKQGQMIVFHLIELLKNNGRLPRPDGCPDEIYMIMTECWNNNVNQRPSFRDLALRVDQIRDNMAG
TEST_NAME: phosphorylation enrichment, bacterial display (enrichment ratio); higher = better substrate or ligand; peptides without Tyr show the background;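 note: 11-residue human phosphosite peptides and single-mutation variants displayed on the E. coli surface, counted by deep sequencing, each peptide's frequency after selection divided by its frequency in the unselected input library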;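 note: frequency after pTyr selection over input frequency; kinase dosed for 20-30% of maximal phosphorylation in three min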
RESULT_TYPE: phosphorylation enrichment

Example sequences with recorded phosphorylation enrichment:
Quick check: phosphorylation enrichment of VTQEPYELFCE [CBL_Y368_Q367P_YF] ?
0.998

Quick check: phosphorylation enrichment of EEVPLYESATT [DCC_Y809_G805E] ?
1.27

Quick check: phosphorylation enrichment of LGIDRYHAIVF [NPSR1_Y147_S143G_YF] ?
2.47

Quick check: phosphorylation enrichment of SGIYQYNIAKF [FOXL2_Y83_I84N] ?
0.593

Further cases:
Quick check: phosphorylation enrichment of DPADRYLIEQC [CDKL5_Y286_T288I] ?
1.06

Quick check: phosphorylation enrichment of FGLQAYTEVKT [ALDH2_Y502_YF] ?
1.13

Quick check: phosphorylation enrichment of QFQEKYKQVEQ [HCN4_Y531_YF] ?
2.09

Quick check: phosphorylation enrichment of CTTIHYNYMWN [TP53_Y234_C238W] ?
0.966

Quick check: phosphorylation enrichment of DQGEQYKKELE [LMNA_Y259_V256G] ?
1.31

Quick check: phosphorylation enrichment of LFSLGYHQSLW [GANAB_Y396_R400L] ?
0.7

Quick check: phosphorylation enrichment of VTAALYGCLFE [BTD_Y536_R538C_YF] ?
1.13

Quick check: phosphorylation enrichment of KVPELYEIHTE [BCR_Y554_K558T] ?
0.827

Quick check: phosphorylation enrichment of FDEFRYRSVIK [CFTR_Y517_YF] ?
0.607

Quick check: phosphorylation enrichment of RFLRGYRQDAY [HLA-A_Y137] ?
0.927

====

TARGET_DESC: EPHB2 (UniProt P29323)
Sequence (P29323 whole entry, looked up): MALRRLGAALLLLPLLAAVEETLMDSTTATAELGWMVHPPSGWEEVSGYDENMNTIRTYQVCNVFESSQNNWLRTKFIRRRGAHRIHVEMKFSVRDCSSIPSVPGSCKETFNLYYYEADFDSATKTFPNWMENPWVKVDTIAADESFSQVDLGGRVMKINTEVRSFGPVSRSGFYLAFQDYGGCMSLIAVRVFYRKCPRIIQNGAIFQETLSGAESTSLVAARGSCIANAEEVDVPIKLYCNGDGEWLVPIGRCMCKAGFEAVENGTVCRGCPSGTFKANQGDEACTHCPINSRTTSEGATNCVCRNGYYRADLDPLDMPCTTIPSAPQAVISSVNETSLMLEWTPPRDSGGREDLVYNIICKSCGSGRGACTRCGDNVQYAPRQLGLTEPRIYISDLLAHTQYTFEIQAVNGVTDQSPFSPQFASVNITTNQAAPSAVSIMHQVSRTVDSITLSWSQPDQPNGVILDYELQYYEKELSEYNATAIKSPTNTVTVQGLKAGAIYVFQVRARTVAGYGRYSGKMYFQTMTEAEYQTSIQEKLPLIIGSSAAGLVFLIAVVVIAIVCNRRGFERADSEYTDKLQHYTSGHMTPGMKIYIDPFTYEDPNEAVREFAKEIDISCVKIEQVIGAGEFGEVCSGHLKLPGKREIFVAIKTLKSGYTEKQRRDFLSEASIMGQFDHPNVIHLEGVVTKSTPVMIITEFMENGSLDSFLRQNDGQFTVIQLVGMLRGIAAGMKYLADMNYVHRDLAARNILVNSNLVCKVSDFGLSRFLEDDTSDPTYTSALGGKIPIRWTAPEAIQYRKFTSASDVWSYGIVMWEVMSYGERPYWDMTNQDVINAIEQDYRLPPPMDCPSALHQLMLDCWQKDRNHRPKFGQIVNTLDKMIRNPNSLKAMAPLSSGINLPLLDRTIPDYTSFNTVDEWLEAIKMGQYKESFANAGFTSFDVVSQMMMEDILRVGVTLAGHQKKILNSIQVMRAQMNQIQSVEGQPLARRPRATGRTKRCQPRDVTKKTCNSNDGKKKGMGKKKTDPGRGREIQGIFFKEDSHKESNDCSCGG
TEST_NAME: phosphorylation enrichment, bacterial display (enrichment ratio); higher = better substrate or ligand; peptides without Tyr show the background
Param threshold (0.5) applies to phosphorylation enrichment; output criterion met when value >= threshold, criterion not met when value < threshold.

Use the examples below as a reference point.
State whether the measured phosphorylation enrichment reaches 0.5, counting equality as reaching it, for QEEPEYWDQET [HLA-A_Y83_G80E]
criterion met

State whether the measured phosphorylation enrichment reaches 0.5, counting equality as reaching it, for TPGPNYRPGYN [USH2A_Y463]
criterion met

Now for a further sequence.
State whether the measured phosphorylation enrichment reaches 0.5, counting equality as reaching it, for KGSEGYLAAIF [NF1_Y2503_T2507I_YF]
criterion not met

====

Examples of sequences with documented phosphorylation enrichment follow.
TARGET_DESC: FGFR3 (UniProt P22607)
Sequence (P22607 whole entry, looked up): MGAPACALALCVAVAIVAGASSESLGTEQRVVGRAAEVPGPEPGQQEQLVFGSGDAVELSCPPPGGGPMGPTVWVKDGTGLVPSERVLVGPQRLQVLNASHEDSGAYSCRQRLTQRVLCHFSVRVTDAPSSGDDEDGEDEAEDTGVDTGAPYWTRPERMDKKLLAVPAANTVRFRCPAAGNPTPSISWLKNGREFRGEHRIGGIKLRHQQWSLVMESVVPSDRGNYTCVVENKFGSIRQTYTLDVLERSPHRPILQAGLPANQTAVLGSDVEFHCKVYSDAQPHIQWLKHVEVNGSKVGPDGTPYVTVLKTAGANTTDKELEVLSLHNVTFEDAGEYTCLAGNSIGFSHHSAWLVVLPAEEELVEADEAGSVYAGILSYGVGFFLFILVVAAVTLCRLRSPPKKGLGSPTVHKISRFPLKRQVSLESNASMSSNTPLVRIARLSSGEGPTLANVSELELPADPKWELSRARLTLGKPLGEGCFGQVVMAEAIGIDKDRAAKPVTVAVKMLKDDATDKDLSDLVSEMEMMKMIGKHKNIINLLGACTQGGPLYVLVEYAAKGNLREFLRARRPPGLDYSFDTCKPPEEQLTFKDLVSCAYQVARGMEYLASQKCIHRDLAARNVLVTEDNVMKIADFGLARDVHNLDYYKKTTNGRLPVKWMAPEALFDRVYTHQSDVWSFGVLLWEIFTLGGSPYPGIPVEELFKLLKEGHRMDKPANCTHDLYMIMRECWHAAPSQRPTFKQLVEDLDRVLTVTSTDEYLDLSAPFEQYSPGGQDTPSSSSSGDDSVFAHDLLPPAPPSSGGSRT
TEST_NAME: phosphorylation enrichment, bacterial display (enrichment ratio); higher = better substrate or ligand; peptides without Tyr show the background

Quick check: phosphorylation enrichment of KLVQLYGVCTK [BTK_Y461] ?
0.532

Quick check: phosphorylation enrichment of FTFDPYSEEDP [IL2RB_Y387_YF] ?
0.698

Quick check: phosphorylation enrichment of GTVRDYPDFSP [ANXA3_Y15] ?
0.587

Quick check: phosphorylation enrichment of SARSAYQEAMD [SFN_Y151] ?
0.539

Quick check: phosphorylation enrichment of TTPAVYARVTK [CTRB2_Y246_A250T] ?
0.496

Further cases:
Quick check: phosphorylation enrichment of SDVCMYRKNTY [SYNE2_Y570_I574T] ?
0.695

Quick check: phosphorylation enrichment of VGEGPYLLSDL [ABCC12_Y7_I9L] ?
0.605
